B1: TPTE2 peptide 92-107 (Phosphatidylinositol 3,4,5-trisphosphate 3-phosphatase TPTE2), 16-mer library wild type / TLN1 PTB (TLN1 Phosphotyrosine-binding (PTB) domain, residues 309-401) (parent)
chain 1: LADLIFTDSKLYIPLE
chain 2: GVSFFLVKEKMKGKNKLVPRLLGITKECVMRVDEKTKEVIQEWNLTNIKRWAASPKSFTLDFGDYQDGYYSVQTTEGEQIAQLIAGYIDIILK

Variants of: B1
assay_details: proteomic peptide phage display deep mutational scan (ProP-PD DMS): M13 P8 16-mer library selected against immobilised GST-tagged bait for four days (rounds), NGS of the eluted pools per day and pseudo-replica
run_conditions: with TLN1 PTB (TLN1 Phosphotyrosine-binding (PTB) domain, residues 309-401); bait immobilised on MaxiSorp plates (10 µg), library pre-cleared on GST, 2 h binding at 4 °C, five washes; one round per day, days 1-4; value from days 2 and 3; keep out of graded; scale: average fractional NGS count over selection days 2 and 3
readout: screen value

[[record]]
mutation_annotation = "chain 1 E16R"
reported_value = "3.05e-05"

[[record]]
mutation_annotation = "chain 1 I13W"
reported_value = 0.000116

[[record]]
mutation_annotation = "chain 1 A2V"
reported_value = 0.000107

[[record]]
mutation_annotation = "chain 1 I13S"
reported_value = "9.27e-05"

[[record]]
mutation_annotation = "chain 1 F6Y"
reported_value = "8.2e-05"

[[record]]
mutation_annotation = "chain 1 D8H"
reported_value = "2.4e-05"

[[record]]
mutation_annotation = "chain 1 L4N"
reported_value = "5.11e-05"

[[record]]
mutation_annotation = "chain 1 L4K"
reported_value = "6.56e-05"

[[record]]
mutation_annotation = "chain 1 K10W"
reported_value = "6.74e-05"

[[record]]
mutation_annotation = "chain 1 L11W"
reported_value = 0

[[record]]
mutation_annotation = "chain 1 L4R"
reported_value = 0

[[record]]
mutation_annotation = "chain 1 P14Y"
reported_value = "7.88e-05"

[[record]]
mutation_annotation = "chain 1 F6G"
reported_value = 0

[[record]]
mutation_annotation = "chain 1 I13D"
reported_value = 0

[[record]]
mutation_annotation = "chain 1 P14E"
reported_value = 0

[[record]]
mutation_annotation = "chain 1 F6S"
reported_value = 0

[[record]]
mutation_annotation = "chain 1 L15E"
reported_value = "6.68e-05"

[[record]]
mutation_annotation = "chain 1 P14S"
reported_value = "2.74e-05"

[[record]]
mutation_annotation = "chain 1 I13Y"
reported_value = "5.85e-05"

[[record]]
mutation_annotation = "chain 1 L15T"
reported_value = "3.85e-05"

[[record]]
mutation_annotation = "chain 1 Y12Q"
reported_value = 0

[[record]]
mutation_annotation = "chain 1 D3W"
reported_value = 0

